assay: Toxicity liver stage against HepG2, at 10uM; type: cell-based; set-up: test concentration 10 uM, cell line HepG2-A16-CD81EGFP; settings: human, HepG2-A16-CD81EGFP cells; read-out: INHIBITION
Listed next: entries and their corresponding cytotoxicity at 10 µM.
Report only the number, with the unit % understood.

Below, 2 compounds whose answers are already recorded.
COc1ccccc1CN1C(=O)O[C@@H]2CN(CC3CC3)C[C@@H]21 ... 1.35
NC(=O)c1cn[nH]c1C1CCCN1C(=O)c1ccccc1 (stereo unspecified) ... 0.00505

// field: cytotoxicity at 10 µM; key: CCOCCC1(CNC(=O)c2ccsc2)CCC1 ; value = 7.92

// field: cytotoxicity at 10 µM; key: Cc1ccc(CN2CCCC3(COCCN(Cc4c[nH]nn4)C3)C2)s1 (stereo unspecified) ; value = -1.31

// field: cytotoxicity at 10 µM; key: CN(Cc1ccccc1NCc1cscn1)C(=O)c1cccs1 ; value = 0.503

// field: cytotoxicity at 10 µM; key: CN(Cc1ccco1)C(=O)C1CSCN1C(=O)c1cccs1 (stereo unspecified) ; value = -7.81

// field: cytotoxicity at 10 µM; key: CCc1nnc2n1CCN(C(=O)C1CCC(n3cccc3)CC1)C2 (stereo unspecified) ; value = -1.5

// field: cytotoxicity at 10 µM; key: Cc1nc2ccccc2n1Cc1cc(C(=O)N(C)C2CCOC2)n[nH]1 (stereo unspecified) ; value = 4.91

// field: cytotoxicity at 10 µM; key: Cc1ccc(CN2CCc3c(COCC4CC4)nn(C)c3C2)s1 ; value = 6.35

// field: cytotoxicity at 10 µM; key: COC(=O)c1cccc(S(=O)(=O)N2CSCC2C(=O)N(C)C2CC2)c1 (stereo unspecified) ; value = 5.15

// field: cytotoxicity at 10 µM; key: CC(c1cccnc1)N(C)Cc1csc(-c2ccccn2)n1 (stereo unspecified) ; value = -10.4
